# System: phenylquinone writhing in mice
# experimental-protocol: Phenylquinone Writhing Assay (analgesia)
# Type: in vivo, mouse (Carworth CF1 male mice)
# settings: Mus musculus, po, 0.25 h, 100 mg/kg oral, 15 Min.; read-out: Phenylquinone Writhing Assay (% Control), percent analgesia
parameter-measured: responders at 100 mg/kg (%)

[[record]]
item_smiles = "COc1nncc(-c2ccc3ccccc3c2)n1"
numeric_value = 20

[[record]]
item_smiles = "COc1cccc(-c2cnnc(OC)n2)c1"
numeric_value = 10

[[record]]
item_smiles = "COc1ccc(-c2cnnc(SC)n2)cc1"
numeric_value = 10

[[record]]
item_smiles = "CCOc1ccc(-c2cnnc(SC)n2)cc1"
numeric_value = 10

[[record]]
item_smiles = "CN(CCO)c1nnc(-c2ccccc2)c(-c2ccccc2)n1"
numeric_value = 20

[[record]]
item_smiles = "CC(C)Oc1nnc(-c2ccccc2)c(-c2ccccc2)n1"
numeric_value = 10

[[record]]
item_smiles = "NNc1nncc(-c2cccc(C(F)(F)F)c2)n1"
numeric_value = 10

[[record]]
item_smiles = "CSc1nncc(-c2cc3ccccc3o2)n1"
numeric_value = 10

[[record]]
item_smiles = "CSc1nnc(-c2ccc(Cl)cc2)c(-c2ccc(Cl)cc2)n1"
numeric_value = 10

[[record]]
item_smiles = "CSc1nncc(-c2ccc(Cl)cc2)n1"
numeric_value = 10

